biological target: Solute carrier organic anion transporter family member 1B3 (Homo sapiens, UniProt Q9NPD5); settings: chinese hamster, cho, 10 µM
Sequence (Q9NPD5 whole entry): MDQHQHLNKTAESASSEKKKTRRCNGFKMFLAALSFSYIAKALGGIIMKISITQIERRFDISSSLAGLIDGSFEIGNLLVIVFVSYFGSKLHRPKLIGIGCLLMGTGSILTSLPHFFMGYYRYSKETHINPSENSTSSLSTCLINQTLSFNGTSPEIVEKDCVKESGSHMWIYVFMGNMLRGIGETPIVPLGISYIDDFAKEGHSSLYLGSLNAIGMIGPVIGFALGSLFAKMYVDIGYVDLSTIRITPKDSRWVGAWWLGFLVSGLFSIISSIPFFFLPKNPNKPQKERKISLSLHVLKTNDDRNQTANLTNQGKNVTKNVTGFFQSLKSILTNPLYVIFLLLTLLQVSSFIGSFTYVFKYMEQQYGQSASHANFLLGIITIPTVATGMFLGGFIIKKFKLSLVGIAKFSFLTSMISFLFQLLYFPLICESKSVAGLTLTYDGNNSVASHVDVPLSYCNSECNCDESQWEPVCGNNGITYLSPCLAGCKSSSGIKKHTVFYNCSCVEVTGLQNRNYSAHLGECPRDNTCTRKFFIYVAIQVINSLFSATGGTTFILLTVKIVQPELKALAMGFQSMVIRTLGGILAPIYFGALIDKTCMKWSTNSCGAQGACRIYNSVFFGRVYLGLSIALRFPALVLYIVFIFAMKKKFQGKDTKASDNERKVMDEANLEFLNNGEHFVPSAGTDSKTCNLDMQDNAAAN
Consider the following molecules and their measured residual activity readings.
Report only the number, with the unit % understood.

Guide cases for residual activity, answers given:
molecule	systemTested	residual activity, %
CC[C@H](C)[C@@H](NC)C(=O)O	Solute carrier organic anion transporter family member 1B3 (Homo sapiens, UniProt Q9NPD5)	105.9
CCn1cc(C(=O)O)c(=O)c2cc(F)c(N3CCNCC3)cc21	Solute carrier organic anion transporter family member 1B3 (Homo sapiens, UniProt Q9NPD5)	99.94
CC1(C)S[C@@H]2[C@H](NC(=O)C(C(=O)[O-])c3ccccc3)C(=O)N2[C@H]1C(=O)[O-].[Na+].[Na+] (some centres undefined) [CARBENICILLIN DISODIUM]	Solute carrier organic anion transporter family member 1B3 (Homo sapiens, UniProt Q9NPD5)	100.7
O=c1[nH]cc(F)c(=O)[nH]1	Solute carrier organic anion transporter family member 1B3 (Homo sapiens, UniProt Q9NPD5)	91.17

We now examine a further molecule.
Item COc1ccc(/C=C/c2cc(O)cc(O[C@@H]3O[C@H](CO)[C@@H](O)[C@H](O)[C@H]3O)c2)cc1O has what recorded residual activity?
100.6

* * *

Biological target: Solute carrier organic anion transporter family member 1B1 (Homo sapiens)
Sequence (Q9Y6L6 whole entry): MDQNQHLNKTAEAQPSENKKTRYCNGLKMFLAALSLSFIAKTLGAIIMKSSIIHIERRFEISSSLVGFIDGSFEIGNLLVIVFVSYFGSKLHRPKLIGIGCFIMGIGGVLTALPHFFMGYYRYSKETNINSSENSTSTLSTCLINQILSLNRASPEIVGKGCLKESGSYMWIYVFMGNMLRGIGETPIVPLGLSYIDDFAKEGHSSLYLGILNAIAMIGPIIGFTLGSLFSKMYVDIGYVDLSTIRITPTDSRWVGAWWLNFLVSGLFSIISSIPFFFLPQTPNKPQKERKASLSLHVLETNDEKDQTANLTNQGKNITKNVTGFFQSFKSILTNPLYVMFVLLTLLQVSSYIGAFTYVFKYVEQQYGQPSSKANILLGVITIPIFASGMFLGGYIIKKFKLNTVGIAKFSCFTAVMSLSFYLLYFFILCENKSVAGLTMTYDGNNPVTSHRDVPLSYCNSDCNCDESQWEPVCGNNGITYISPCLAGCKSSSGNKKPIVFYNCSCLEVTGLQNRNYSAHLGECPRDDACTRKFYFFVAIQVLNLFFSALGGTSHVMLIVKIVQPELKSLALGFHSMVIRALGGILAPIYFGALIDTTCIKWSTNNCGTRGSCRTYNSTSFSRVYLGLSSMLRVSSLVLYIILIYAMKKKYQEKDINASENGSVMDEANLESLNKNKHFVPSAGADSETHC
Conditions: chinese hamster, cho, 10 µM
Where a name gives a salt, the structure may show the parent alone. Residues, ends and D or L forms follow the SMILES beside them. *: point of attachment. Tfa = O=C(C(F)(F)F)*
Overview of recorded residual activity for various molecules
Write the numeric value and append its unit.

Before answering, review these 6 worked examples.
molecule	systemTested	residual activity
O=C1C(Cl)=C(Cl)C(=O)C(Cl)=C1Cl	Solute carrier organic anion transporter family member 1B1 (Homo sapiens)	80.53%
CCCNC(C)C(=O)Nc1ccccc1C.Cl (configuration not stated) [PRILOCAINE HYDROCHLORIDE]	Solute carrier organic anion transporter family member 1B1 (Homo sapiens)	87.24%
CC(=O)Oc1cc2c(c(C)c1OC(C)=O)CC=C1[C@]2(C)CC[C@]2(C)[C@@H]3C[C@](C)(C(=O)O)CC[C@]3(C)CC[C@@]12C	Solute carrier organic anion transporter family member 1B1 (Homo sapiens)	47.56%
Oc1cc(O)c2c(c1)O[C@H](c1ccc(O)c(O)c1)[C@@H](O)C2	Solute carrier organic anion transporter family member 1B1 (Homo sapiens)	72.87%
CC(C)[C@H](NC(=O)[C@H](Cc1ccc(O)cc1)NC(=O)[C@@H](NC(=O)C(F)(F)F)C(C)C)C(=O)O [Tfa-VAL-TYR-VAL-OH] (Tfa-Val-Tyr-Val-OH)	Solute carrier organic anion transporter family member 1B1 (Homo sapiens)	108%
CC(=O)OCC(=O)[C@@]1(O)CC[C@H]2[C@@H]3CC[C@H]4CC(OC(C)=O)CC[C@]4(C)[C@H]3C(=O)C[C@@]21C (some centres not stated)	Solute carrier organic anion transporter family member 1B1 (Homo sapiens)	99.36%

Proceed to the following item.
Provide the documented residual activity with Solute carrier organic anion transporter family member 1B1 (Homo sapiens) as the system for C[C@@H]1C[C@H]2[C@@H]3C[C@H](F)C4=CC(=O)C=C[C@]4(C)[C@@]3(F)[C@@H](O)C[C@]2(C)[C@@]1(O)C(=O)COC(=O)C(C)(C)C [FLUMETHASONE PIVALATE]
98.41%
